assayExplanation: Pharmacokinetics in female BALB/c nude mice bearing A375 xenografts, 1 day dosing (PK and PD study): plasma, tumor and brain concentrations, AUC
Format: in vivo
assayConditions: mouse, brain, po, 3 mg/kg, 3 mg/kg p.o. BID × 1 day; post 2nd dose; 4 h; read-out: Mean Concentration in Brain ± SEM

{"columns": ["compound", "unitsOfMeasure", "concentration at 4 h"],
 "data": [
  ["CCN(C)S(=O)(=O)Nc1ccc(F)c(Oc2ccc3ncn([C@H]4COC5(CCN(C6CC7(C6)CN(c6cc8c(cc6F)c(N6CCC(=O)NC6=O)nn8C)C7)CC5)C4)c(=O)c3c2)c1C#N [Compound 26]", "ng/g", 35.8]
]}

----------
System: A375 human melanoma xenografts
assayExplanation: Example 6 efficacy study in A375 human melanoma xenografts (tumor volume, T/C, TGI)
Assay type: in vivo, BALB/c nude mice
assayConditions: 10 mg/kg, p.o., BID × 21 days; PG-D21
Description: For efficacy study, compounds were tested in the A375 human melanoma xenografts. Known BRAF inhibitors encorafenib, and dabrafenib were used as positive controls. […] The A375 tumor cells were maintained in vitro in DMEM medium supplemented with […] and 1% Penicillin-Streptomycin at 37° C. in an atmosphere of 5% CO2 in air. […] The cells growing in an exponential growth phase were harvested and counted for tumor inoculation. […]
quantityMeasured: TGI

{"columns": ["compound", "dataValue"],
 "data": [
  ["CCN(C)S(=O)(=O)Nc1ccc(F)c(Oc2ccc3ncn([C@H]4COC5(CCN(C6CC(c7cc8c(cc7F)c(N7CCC(=O)NC7=O)nn8C)C6)CC5)C4)c(=O)c3c2)c1C#N (single isomer, unassigned) [Compound 70]", "110.1%"],
  ["Cn1nc(N2CCC(=O)NC2=O)c2cc(F)c(C3CCC(N4CCC5(CC4)CC(n4cnc6ccc(Oc7c(F)ccc(NS(=O)(=O)C8CCCC8)c7C#N)cc6c4=O)C5)CC3)cc21 (single isomer, unassigned) [Compound 93]", "107.4%"],
  ["CCN(C)S(=O)(=O)Nc1ccc(F)c(Oc2ccc3ncc([C@@H]4COC5(CCN(C6CCC(c7cc8c(cc7F)c(N7CCC(=O)NC7=O)nn8C)CC6)CC5)C4)nc3c2)c1C#N (single isomer, unassigned) [Compound 54]", "106.6%"],
  ["CCN(C)S(=O)(=O)Nc1ccc(F)c(Oc2ccc3ncn(C4CC5(CCN(C6CCC(c7cc8c(cc7F)c(N7CCC(=O)NC7=O)nn8C)CC6F)CC5)C4)c(=O)c3c2)c1C#N (single isomer, unassigned) [Compound 83]", "110.3%"]
]}

----------
assayExplanation: Example 6 pharmacokinetics assay for PKPD study (plasma, tumor, liver)
Assay type: in vivo, BALB/c nude mice
assayConditions: mouse, tumor, po; 100 mg/kg, single dose; 24 h; read-out: Concentration in Tumor (mean ± SEM)

{"columns": ["molecule", "unitsOfMeasure", "concentration at 24 h"],
 "data": [
  ["CC(C)(C)c1nc(-c2cccc(NS(=O)(=O)c3c(F)cccc3F)c2F)c(-c2ccnc(N)n2)s1 [Dabrafenib, dabrafenib, reference compound]", "ng/g", 1.34]
]}

----------
assayExplanation: Pharmacokinetics after 21 days dosing in the efficacy study (plasma, tumor and brain concentrations; plasma AUC at steady state), Example 14
Assay type: in vivo, female BALB/c nude mice
assayConditions: mouse, plasma, po; 3 mg/kg p.o. BID x 21 days; 2 h; mean ± SEM

{"columns": ["compoundSmiles", "concentration at 2 h, ng/mL"],
 "data": [
  ["CCN(C)S(=O)(=O)Nc1ccc(F)c(Oc2ccc3ncn([C@H]4COC5(CCN(C6CC7(C6)CN(c6cc8c(cc6F)c(N6CCC(=O)NC6=O)nn8C)C7)CC5)C4)c(=O)c3c2)c1C#N", 6750]
]}
